Origin of the recorded values: patent US11053204B2

# Test system: geranium, cutleaf (cutleaf geranium, Geranium dissectum)
# Assay Overview: Test C postemergence, plant response rating
# Format: in vivo
# Experimental Setup: 31 g ai/ha, scale 0 to 100
I'd be grateful if you could share measured Plant response rating, Geranium, Cutleaf for these entries.

// query So what Plant response rating, Geranium, Cutleaf did O=C(CCCC(F)(F)F)c1c(Oc2ncc(Cl)cn2)cccc1C(F)(F)F get with geranium, cutleaf (cutleaf geranium, Geranium dissectum)?
// result 30

// query So what Plant response rating, Geranium, Cutleaf did CCCCC(=O)c1c(Oc2ncc(Cl)cn2)cccc1C(F)(F)F get with geranium, cutleaf (cutleaf geranium, Geranium dissectum)?
// result 35

// query So what Plant response rating, Geranium, Cutleaf did N#Cc1cccc(Oc2ncc(Cl)cn2)c1COCCC(F)(F)F get with geranium, cutleaf (cutleaf geranium, Geranium dissectum)?
// result 35

// query So what Plant response rating, Geranium, Cutleaf did CCCC(=O)c1c(Oc2ncc(Cl)cn2)cccc1C(F)(F)F get with geranium, cutleaf (cutleaf geranium, Geranium dissectum)?
// result 25

// query So what Plant response rating, Geranium, Cutleaf did CCCCC(=O)c1c(Br)cccc1Oc1ncc(Cl)cn1 get with geranium, cutleaf (cutleaf geranium, Geranium dissectum)?
// result 50

// query So what Plant response rating, Geranium, Cutleaf did N#CC(CCCC(F)(F)F)c1ccccc1Oc1ncc(Cl)cn1 (stereo not drawn) get with geranium, cutleaf (cutleaf geranium, Geranium dissectum)?
// result 20
